B1: MBP–Hrp1p NLS [S. cerevisiae] / Kap104p [yeast (S. cerevisiae)] (parent)
chain 1: RDRNDRDRDYNHRSGGNHRRNGRGGRGGYNRRNNGYHPYNR
chain 2: MASTWKPAEDYVLQLATLLQNCMSPNPEIRNNAMEAMENFQLQPEFLNYLCYILIEGESDDVLKQHYSLQDLQNNRATAGMLLKNSMLGGNNLIKSNSHDLGYVKSNIIHGLYNSNNNLVSNVTGIVITTLFSTYYRQHRDDPTGLQMLYQLLELTSNGNEPSIKALSKIMEDSAQFFQLEWSGNTKPMEALLDSFFRFISNPNFSPVIRSESVKCINTVIPLQTQSFIVRLDKFLEIIFQLAQNDENDLVRAQICISFSFLLEFRPDKLVSHLDGIVQFMLHLITTVNEEKVAIEACEFLHAFATSPNIPEHILQPYVKDIVPILLSKMVYNEESIVLLEASNDDDAFLEDKDEDIKPIAPRIVKKKEAGNGEDADDNEDDDDDDDDEDGDVDTQWNLRKCSAATLDVMTNILPHQVMDIAFPFLREHLGSDRWFIREATILALGAMAEGGMKYFNDGLPALIPFLVEQLNDKWAPVRKMTCWTLSRFSPWILQDHTEFLIPVLEPIINTLMDKKKDVQEAAISSVAVFIENADSELVETLFYSQLLTSFDKCLKYYKKKNLIILYDAIGRFAEKCALDETAMQIILPPLIEKWALLSDSDKELWPLLECLSCVASSLGERFMPMAPEVYNRAFRILCHCVELEAKSHQDPTIVVPEKDFIITSLDLIDGLVQGLGAHSQDLLFPQGTKDLTILKIMLECLQDPVHEVRQSCFALLGDIVYFFNSELVIGNLEDFLKLIGTEIMHNDDSDGTPAVINAIWALGLISERIDLNTYIIDMSRIILDLFTTNTQIVDSSVMENLSVTIGKMGLTHPEVFSSGAFANDSNWNKWCLSVNALDDVEEKSSAYMGFLKIINLTSTEVTMSNDTIHKIVTGLSSNVEANVFAQEIYTFLMNHSAQISAINFTPDEISFLQQFTS

# Variants of: B1
# assay notes: ITC
# stated conditions: with Kap104p [yeast (S. cerevisiae)]
metric name: screen value
Be sure to follow the number with its unit.

The following variants have reported results that may help.
chain 1 R19K R20K R23K R26K	-2.8 kcal/mol/K
chain 1 R19A Y36A	-2.2 kcal/mol/K
chain 1 R32A	-2.2 kcal/mol/K
chain 1 R31A	-1.8 kcal/mol/K

Alright, here's another variant for you.
Bench note: what screen value did chain 1 Y36L show?
-0.9 kcal/mol/K

// provenance: paper PMC2408616
